Exercise: state measured Population Normal (%) for each of the compounds provided.
# Tested on: U2OS
# Assay Info: Multiplex assay against U2OS
# Format: toxicity, cell-based
# Assay Setup: human, 48 h, 1 µM, compound concentration 1 uM, replicate 2

Problem: Fill in Population Normal (%) for record Cl.N=C(N)NC(=O)Cc1c(Cl)cccc1Cl [GUANFACINE HYDROCHLORIDE]
Result: 96%

Problem: Look up Population Normal (%) of Cc1noc(-c2ccc(-c3ccc(CC(=O)O)cc3)cc2)c1NC(=O)O[C@H](C)c1ccccc1Cl and report it.
Result: 100%

Problem: For the compound COC[C@@H](c1ccc(C(F)(F)F)cc1)N1CCN(C2(C)CCN(C(=O)c3c(C)ncnc3C)CC2)C[C@@H]1C.O=C(O)/C=C\C(=O)O [VICRIVIROC MALEATE] , report Population Normal (%).
Result: 98%

Problem: Name the recorded Population Normal (%) of the item N#Cc1c(Oc2cccc(OS(=O)(=O)CCCC(F)(F)F)c2)cccc1C(F)(F)F in your answer.
Result: 97%

Problem: Give the measured Population Normal (%) for Cc1cnc(-c2cc(N3CCN(C(=O)CCS(C)(=O)=O)CC3)ncc2Cl)c(C)c1
Result: 98%

Problem: Return the recorded Population Normal (%) value; entry: CC(C)c1noc(N2CCC(COc3ccc(-c4ccc(S(C)(=O)=O)cc4)nc3)CC2)n1
Result: 98%

Problem: // Input: O=C(NCCN1CCC(n2c(=O)[nH]c3cc(Cl)ccc32)CC1)c1ccc(F)cc1 [HALOPEMIDE] . Output its Population Normal (%) only.
Result: 98%

Problem: Return reported Population Normal (%). Input compound: Cc1cccc(NC(=O)CN2CCC(c3ccccn3)CC2)c1.Cl.Cl
Result: 96%

Problem: Return reported Population Normal (%). Input compound: CC(C)COc1ccc(CNC(=O)N(Cc2ccc(F)cc2)C2CCN(C)CC2)cc1
Result: 98%

Problem: Indicate its recorded Population Normal (%); the compound in question is C[C@H](N)COC(=O)[C@@H](CCCCN)NC(=O)Cc1c(-c2ccc3ccccc3c2)[nH]c2c1ccc1ccccc12
Result: 97%

Problem: Complete the entry with Population Normal (%) for CCc1cc2cc(NS(=O)(=O)c3ccc(C#N)cc3)ccc2n(CC)c1=O
Result: 96%

This collection of values is drawn from ChEMBL document CHEMBL5058577.
